So I've got IC50 readings for human SAP binding to TNP-KLH coated polystyrene (Homo sapiens), take a look.
Answer format: numeric, mM implied, no suffix.

human SAP binding to TNP-KLH coated polystyrene (Homo sapiens) / IC50 / O=C(O)CN(CCN(CC(=O)O)CC(=O)O)CC(=O)O : value?
5.35

human SAP binding to TNP-KLH coated polystyrene (Homo sapiens) / IC50 / Nc1ccc([As](=O)(O)O)cc1 : value?
27.3

human SAP binding to TNP-KLH coated polystyrene (Homo sapiens) / IC50 / O=C(O)CN(CCOCCOCCN(CC(=O)O)CC(=O)O)CC(=O)O : value?
17

human SAP binding to TNP-KLH coated polystyrene (Homo sapiens) / IC50 / O=[N+]([O-])c1cc([N+](=O)[O-])c2ccc(S(=O)(=O)O)cc2c1O : value?
43.3

human SAP binding to TNP-KLH coated polystyrene (Homo sapiens) / IC50 / O=[N+]([O-])c1ccc([As](=O)(O)O)cc1 : value?
4.2

###

Assay System: human SAP binding to TNP-KLH coated polystyrene (Homo sapiens, UniProt P02743)
Sequence (P02743 20-223): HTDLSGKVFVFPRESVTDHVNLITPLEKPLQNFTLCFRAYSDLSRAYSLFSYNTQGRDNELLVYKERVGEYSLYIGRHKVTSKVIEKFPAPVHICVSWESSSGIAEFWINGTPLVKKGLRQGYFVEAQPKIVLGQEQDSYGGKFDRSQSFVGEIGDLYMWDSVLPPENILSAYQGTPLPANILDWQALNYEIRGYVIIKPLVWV
Run Description: Inhibition of binding of human SAP to TNP-KLH coated polystyrene
Property Name: inhibition of SAP binding to TNP-KLH coated polystyrene, in words

Compound | Assay System | Value Reported
O=[N+]([O-])c1cc([N+](=O)[O-])c2ccc(S(=O)(=O)O)cc2c1O [2,4-dinitro-1-naphthol-7-sulphonic acid] | human SAP binding to TNP-KLH coated polystyrene (Homo sapiens, UniProt P02743) | Inhibiting properties
Nc1ccc([As](=O)(O)O)cc1 [p-aminophenyl-arsonic acid] | human SAP binding to TNP-KLH coated polystyrene (Homo sapiens, UniProt P02743) | Inhibiting properties
O=[N+]([O-])c1ccc([As](=O)(O)O)cc1 [p-nitrophenylarsonic acid] | human SAP binding to TNP-KLH coated polystyrene (Homo sapiens, UniProt P02743) | Inhibiting properties
